Tested on: MV4-11
Assay: Cell proliferation inhibition (CellTiter-Glo), MV4-11
Type: cell-based
Conditions: Homo sapiens, MV4-11, 72 h, MV4-11 cells
Description: Test Example 2: Test of the Inhibitory Ability of Menin-MLL Interaction Inhibitors on Cell Proliferation […]
reported.property: GI50 (nM)

Some entries whose results are on file:
compound	GI50 (nM)
CCN(C(=O)c1cc(F)ccc1Oc1cncnc1N1CC2(CCN(CC3CC4CCC3CC43CCC(=O)N3)CC2)C1)C(C)C (single isomer, unassigned) [Example 3]	94.7
CCN(C(=O)c1cc(F)ccc1Oc1cncnc1N1CC2(CCN(C[C@H]3CC[C@@]4(CCC(=O)N4)CC3)CC2)C1)C(C)C [Example 1]	76.2
CC1C[C@]2(CC[C@@H](CN3CCC4(CC3)CN(c3ncncc3Oc3ccc(F)cc3C(=O)N(C(C)C)C(C)C)C4)CC2)NC1=O (stereo partly shown) [Example 39]	20

A: CC(C)N(C(=O)c1cc(F)ccc1Oc1cncnc1N1CC2(CCN(C[C@H]3CC[C@]4(CC3)CC(C)(C)C(=O)N4)CC2)C1)C1CC1 [Example 23]
B: CCN(C(=O)c1cc(F)ccc1Oc1nncnc1N1CC2(CCN(CC3CCC4(CC3)CN(C)C(=O)N4)CC2)C1)C(C)C (single isomer, unassigned) [Example 46-1]
Task: Param metric = GI50; output whichever of A , B has the minimum value. Identify your selection by its label.
Result: A

a: [2H]C([2H])([2H])C1(C([2H])([2H])[2H])C[C@]2(CC[C@@H](CN3CCC4(CC3)CN(c3ncnnc3Oc3ccc(F)cc3C(=O)N(CC)C(C)C)C4)CC2)NC1=O [Example 33]
b: CC(C)N(C(=O)c1cc(F)ccc1Oc1cncnc1N1CC2(CCN(C[C@H]3CC[C@]4(CC3)CC(C)(C)C(=O)N4)CC2)C1)C(C)C [Example 22]
Task: Param metric = GI50; output whichever of a , b has the minimum value. Identify your selection by its label.
Result: b

###

Tested on: MOLM-13
Assay: Cell proliferation inhibition (CellTiter-Glo), MOLM-13
Assay type: cell-based
Conditions: Homo sapiens, MOLM-13, 168 h, MOLM-13 cells
reported.property: GI50 (nM)

compound	recorded.number
CCN(C(=O)c1cc(F)ccc1Oc1nncnc1N1CC2(CCN(C[C@H]3CC[C@]4(CC3)CC(COC)(COC)C(=O)N4)CC2)C1)C(C)C	33.1
CC(C)N(C(=O)c1cc(F)ccc1Oc1cncnc1N1CC2(CCN(CC3CC4CCC3CC43COC(=O)N3)CC2)C1)C(C)C (single isomer, unassigned)	101

1: CCN(C(=O)c1cc(F)ccc1Oc1nncnc1N1CC2(CCN(C[C@H]3CC[C@]4(CC3)C[C@H](COC)C(=O)N4)CC2)C1)C(C)C
2: [2H]C([2H])([2H])C1C[C@]2(CC[C@@H](CN3CCC4(CC3)CN(c3ncnnc3Oc3ccc(F)cc3C(=O)N(CC)C(C)C)C4)CC2)NC1=O (single isomer, unassigned)
Task: Param metric = GI50; output whichever of 1 , 2 has the minimum value. Identify your selection by its label.
Result: 2

###

Assay: Pharmacokinetics test in mouse
Format: in vivo, ICR mice
Details: male, ICR, mouse, plasma, po, 10 mg/kg, mice, p.o. 10 mg/kg
reported.property: half-life (h)

compound	measurement.unit	recorded.number
CC(C)N(C(=O)c1cc(F)ccc1Oc1nncnc1N1CC2(CCN(CC3CC4CCC3CC43CCC(=O)N3)CC2)C1)C(C)C (single isomer, unassigned) [Example 15-1a]	h	1.17
COC[C@@H]1C[C@]2(CC[C@@H](CN3CCC4(CC3)CN(c3ncnnc3Oc3ccc(F)cc3C(=O)N(C(C)C)C(C)C)C4)CC2)NC1=O [Example 38-2]	h	0.83
CC(C)N(C(=O)c1cc(F)ccc1Oc1nncnc1N1CC2(CCN(CC3CCC4(CC3)COC(=O)N4)CC2)C1)C(C)C (stereo not drawn) [Example 49]	h	1.1

###

Assay: Pharmacokinetics test in mouse
Assay type: in vivo, ICR mice
Settings: male, ICR, mouse, plasma, po, 10 mg/kg, mice, p.o. 10 mg/kg; read-out: Cmax
reported.property: Cmax (ng/mL)

Some entries whose results are on file:
molecule	reported.property	recorded.number
CC(C)N(C(=O)c1cc(F)ccc1Oc1cncnc1N1CC2(CCN(CC3CC4CCC3CC43CCC(=O)N3)CC2)C1)C(C)C (single isomer, unassigned) [Example 13-1b]	Cmax	2010
COCC1(COC)C[C@]2(CC[C@@H](CN3CCC4(CC3)CN(c3ncncc3Oc3ccc(F)cc3C(=O)N(C(C)C)C(C)C)C4)CC2)NC1=O [Example 18]	Cmax	1960
CCN(C(=O)c1cc(F)ccc1Oc1cncnc1N1CC2(CCN(C[C@H]3CC[C@]4(CC3)CC(COC)(COC)C(=O)N4)CC2)C1)C(C)C [Example 17]	Cmax	2120

P: CC(C)N(C(=O)c1cc(F)ccc1Oc1cncnc1N1CC2(CCN(C[C@H]3CC[C@]4(CC3)CC(C)(C)C(=O)N4)CC2)C1)C1CC1 [Example 23]
Q: COC[C@H]1C[C@]2(CC[C@@H](CN3CCC4(CC3)CN(c3ncnnc3Oc3ccc(F)cc3C(=O)N(C(C)C)C(C)C)C4)CC2)NC1=O [Example 38-1]
R: COC[C@@H]1C[C@]2(CC[C@@H](CN3CCC4(CC3)CN(c3ncnnc3Oc3ccc(F)cc3C(=O)N(C(C)C)C(C)C)C4)CC2)NC1=O [Example 38-2]
Task: Form: Sort by [Cmax] Order [ ascending ] Respond with the label ranking, as requested.
Result: R, P, Q
(R: 824 ng/mL, P: 1510 ng/mL, Q: 2260 ng/mL)

###

Assay: Stability in dog liver microsomes
Format: in vitro ADME
Conditions: dog, liver microsomes, pH 7.4, Dog; 0.5 mg/mL microsomal protein, 1.00 μM compound, NADPH; read-out: Half life T1/2, dog liver microsomes
reported.property: half-life at 1 μM

compound	half-life at 1 μM
CCN(C(=O)c1cc(F)ccc1Oc1nncnc1N1CC2(CCN(C[C@H]3CC[C@]4(CC3)C[C@H](COC)C(=O)N4)CC2)C1)C(C)C	> 2 h

Task: I am curious: what half-life at 1 μM value has been reported for CC(C)N(C(=O)c1cc(F)ccc1Oc1nncnc1N1CC2(CCN(CC3CC4CCC3CC43CCC(=O)N3)CC2)C1)C(C)C (single isomer, unassigned) ?
Result: > 2 h

Task: Another compound to look at: CCN(C(=O)c1cc(F)ccc1Oc1cncnc1N1CC2(CCN(C[C@H]3CC[C@]4(CC3)CC(COC)(COC)C(=O)N4)CC2)C1)C(C)C
Result: > 2 h

Task: Another compound to look at: COCC1(COC)C[C@]2(CC[C@@H](CN3CCC4(CC3)CN(c3ncnnc3Oc3ccc(F)cc3C(=O)N(C(C)C)C(C)C)C4)CC2)NC1=O
Result: > 2 h

###

Biological target: Menin/MLL-4-43 peptide interaction (Homo sapiens (Human), UniProt O00255)
Sequence (O00255 whole entry, species assumed): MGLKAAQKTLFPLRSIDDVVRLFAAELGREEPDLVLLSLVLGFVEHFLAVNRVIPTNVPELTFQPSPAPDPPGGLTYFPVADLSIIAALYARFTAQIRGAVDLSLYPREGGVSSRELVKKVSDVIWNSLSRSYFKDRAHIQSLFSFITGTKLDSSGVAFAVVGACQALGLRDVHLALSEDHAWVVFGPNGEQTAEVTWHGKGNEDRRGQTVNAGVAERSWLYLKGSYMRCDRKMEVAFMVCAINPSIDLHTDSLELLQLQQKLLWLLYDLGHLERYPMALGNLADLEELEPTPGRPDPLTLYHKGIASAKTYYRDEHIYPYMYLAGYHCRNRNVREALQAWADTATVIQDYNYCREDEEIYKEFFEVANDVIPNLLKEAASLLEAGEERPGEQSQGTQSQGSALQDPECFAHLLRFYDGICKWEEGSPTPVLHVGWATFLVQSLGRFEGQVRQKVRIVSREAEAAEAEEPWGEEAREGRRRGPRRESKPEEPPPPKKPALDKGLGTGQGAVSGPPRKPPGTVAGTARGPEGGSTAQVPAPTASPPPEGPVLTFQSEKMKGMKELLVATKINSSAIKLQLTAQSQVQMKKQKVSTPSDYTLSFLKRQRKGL
Assay: Menin-MLL interaction inhibitory activity assay (fluorescence polarization competition)
Conditions: FITC-MLL4-43-peptide, Menin recombinant protein
pIC50: −log10 of the molar value.
reported.property: pIC50

Some entries whose results are on file:
molecule	measurement.target	pIC50
CCN(C(=O)c1cc(F)ccc1Oc1nncnc1N1CC2(CCN(C[C@H]3CC[C@]4(CC3)CC3(CCOCC3)C(=O)N4)CC2)C1)C(C)C [Example 45]	Menin/MLL-4-43 peptide interaction (Homo sapiens (Human), UniProt O00255)	8.60
CCN(C(=O)c1cc(F)ccc1Oc1nncnc1N1CC2(CCN(C[C@H]3CC[C@@]4(CCC(=O)N4)CC3)CC2)C1)C(C)C [Example 7]	Menin/MLL-4-43 peptide interaction (Homo sapiens (Human), UniProt O00255)	7.21
CCN(C(=O)c1cc(F)ccc1Oc1nncnc1N1CC2(CCN(CC3CC4CCC3CC43CCC(=O)N3)CC2)C1)C(C)C (stereo not drawn) [Example 14-1]	Menin/MLL-4-43 peptide interaction (Homo sapiens (Human), UniProt O00255)	6.99
CC(C)N(C(=O)c1cc(F)ccc1Oc1nncnc1N1CC2(CCN(C[C@H]3CC[C@]4(CC3)CC(C(C)(C)O)C(=O)N4)CC2)C1)C(C)C (stereo partly drawn) [Example 59-1]	Menin/MLL-4-43 peptide interaction (Homo sapiens (Human), UniProt O00255)	8.60
CCN(C(=O)c1cc(F)ccc1Oc1nncnc1N1CC2(CCN(CC3CC4CCC3CC43CCC(=O)N3)CC2)C1)C(C)C (single isomer, unassigned) [Example 14-1a]	Menin/MLL-4-43 peptide interaction (Homo sapiens (Human), UniProt O00255)	7.31

I: CC(C)N(C(=O)c1cc(F)ccc1Oc1nncnc1N1CC2(CCN(C[C@H]3CC[C@]4(CC3)CC(C)(C)C(=O)N4)CC2)C1)C(C)C [Example 27]
II: CCN(C(=O)c1cc(F)ccc1Oc1nncnc1N1CC2(CCN(C[C@H]3CC[C@]4(CC3)CC(C)C(=O)N4)CC2)C1)C(C)C (single isomer, unassigned) [Example 40-2]
III: CCN(C(=O)c1cc(F)ccc1Oc1cncnc1N1CC2(CCN(CC3CC4CCC3CC43COC(=O)N3)CC2)C1)C(C)C (single isomer, unassigned) [Example 50-2b]
IV: CC(C)c1ncncc1-c1cc(F)ccc1Oc1cncnc1N1CC2(CN(CC3CCC4(CC3)OCCO4)C2)C1 [Control compound 1, reference compound]
Task: Arrange these molecules by their pIC50, starting with the largest number. Respond with the label ranking, as requested.
Result: I, II, III, IV

a: CCN(C(=O)c1cc(F)ccc1Oc1cncnc1N1CC2(CCN(CC3CC4CCC3CC43COC(=O)N3)CC2)C1)C(C)C (single isomer, unassigned) [Example 50-1b]
b: CC(C)N(C(=O)c1cc(F)ccc1Oc1nncnc1N1CC2(CCN(CC3CC4CCC3CC43COC(=O)N3)CC2)C1)C(C)C (single isomer, unassigned) [Example 52-2]
c: CCN(C(=O)c1cc(F)ccc1Oc1cncnc1N1CC2(CCN(CC3CC4CCC3CC43CCC(=O)N3)CC2)C1)C(C)C (single isomer, unassigned) [Example 4-1]
d: CCN(C(=O)c1cc(F)ccc1Oc1cncnc1N1CC2(CCN(C[C@H]3CC[C@]4(CC3)C[C@@H](COC)C(=O)N4)CC2)C1)C(C)C [Example 35]
Task: Arrange these molecules by their pIC50, starting with the largest number. Respond with the label ranking, as requested.
Result: d, c, a, b

a: CC(C)N(C(=O)c1cc(F)ccc1Oc1nncnc1N1CC2(CCN(CC3CCC4(CC3)CN(C)C(=O)N4)CC2)C1)C(C)C (single isomer, unassigned) [Example 47-1]
b: CC(C)N(C(=O)c1cc(F)ccc1Oc1cncnc1N1CC2(CCN(C[C@H]3CC[C@@]4(CCC(=O)N4)CC3)CC2)C1)C(C)C [Example 5]
c: CCN(C(=O)c1cc(F)ccc1Oc1nncnc1N1CC2(CCN(C[C@H]3CC[C@]4(CC3)C[C@@H](COC)C(=O)N4)CC2)C1)C(C)C [Example 37-2]
d: COCC1(COC)C[C@]2(CC[C@@H](CN3CCC4(CC3)CN(c3ncnnc3Oc3ccc(F)cc3C(=O)N(C(C)C)C(C)C)C4)CC2)NC1=O [Example 20]
Task: Arrange these molecules by their pIC50, starting with the largest number. Respond with the label ranking, as requested.
Result: c, d, a, b
(c: 8.48, d: 8.22, a: 7.69, b: 7.47)

P: CC(C)N(C(=O)c1cc(F)ccc1Oc1cncnc1N1CC2(CCN(C[C@H]3CC[C@]4(CC3)CC(C)(C)C(=O)N4)CC2)C1)C(C)C [Example 22]
Q: CCN(C(=O)c1cc(F)ccc1Oc1cncnc1N1CC2(CCN(CC3CC4CCC3CC43CCC(=O)N3)CC2)C1)C(C)C (single isomer, unassigned) [Example 4]
Task: Sorting by pIC50 in descending order, would P or Q appear first? Identify your selection by its label.
Result: P
(P: 7.78, Q: 7.54)

// provenance: patent US20250074910A1
